Record form. Attribute: A. baumannii MIC, RpoB H535Q. Fill in for each entry.
test system: A. baumannii RpoB H535Q; experiment: microbe, parasite or virus in culture; assay type: cell-based, Acinetobacter baumannii; conditions: Table 4, RPMI + FCS
Your answer should be a plain number; it is taken to be in mg/L.

Task item: API: value(readout=A. baumannii MIC, RpoB H535Q, system=A. baumannii RpoB H535Q) for record CCCN1C2CCC1CC1(C2)N=C2C(=C3NC(=O)/C(C)=C\C=C\[C@H](C)[C@H](O)[C@@H](C)[C@@H](O)[C@@H](C)[C@H](OC(C)=O)[C@H](C)[C@@H](OC)/C=C/O[C@@]4(C)Oc5c(C)c(O)c(c2c5C4=O)C3=O)N1 (single isomer, unassigned) [Compound 20B]
Reply: 0.004

Task item: # query: A. baumannii MIC, RpoB H535Q | item COC1C=COC2(C)Oc3c(C)c(O)c4c(c3C2=O)C2=NC3(NC2=C(NC(=O)C(C)=CC=CC(C)C(O)C(C)C(O)C(C)C(OC(C)=O)C1C)C4=O)C1CCCC3CNC1 (mixture of isomers) | system: A. baumannii RpoB H535Q
Reply: 0.008

Task item: Form: Entry = CO[C@H]1/C=C/O[C@@]2(C)Oc3c(C)c(O)c4c(c3C2=O)C2=NC3(NC2=C(NC(=O)/C(C)=C\C=C\[C@H](C)[C@H](O)[C@@H](C)[C@@H](O)[C@@H](C)[C@H](OC(C)=O)[C@@H]1C)C4=O)C1CN(C)CC3CN(C)C1 (stereo partly drawn) | System = A. baumannii RpoB H535Q | A. baumannii MIC, RpoB H535Q = ____
Reply: 0.03

Task item: Query A. baumannii MIC, RpoB H535Q on A. baumannii RpoB H535Q for COC1C=COC2(C)Oc3c(C)c(O)c4c(c3C2=O)C2=NC3(CCC5CCC(C3)N5C)NC2=C(NC(=O)C(C)=CC=CC(C)C(O)C(C)C(O)C(C)C(OC(C)=O)C1C)C4=O (mixture of isomers)
Reply: 0.06

Task item: Give A. baumannii MIC, RpoB H535Q (A. baumannii RpoB H535Q) of the following compound: CO[C@H]1/C=C/O[C@@]2(C)Oc3c(C)c(O)c4c(c3C2=O)C2=NC3(CCCN(C)CC3)NC2=C(NC(=O)/C(C)=C\C=C\[C@H](C)[C@H](O)[C@@H](C)[C@@H](O)[C@@H](C)[C@H](OC(C)=O)[C@@H]1C)C4=O (single isomer, unassigned)
Reply: 0.016

###

Provide the recorded MIC H. influenzae for the entries that follow.
test system: H. influenzae (strain ATCC 49247); assay: MIC by broth microdilution, H. influenzae; assay type: cell-based, Hemophilus influenzae; settings: strain ATCC 49247, Hemophilus test medium broth
Only the number, expressed in µg/mL, is required.

Task item: Consider the molecule CCCN1C2CCC1CC1(C2)N=C2C(=C3NC(=O)/C(C)=C\C=C\[C@H](C)[C@H](O)[C@@H](C)[C@@H](O)[C@@H](C)[C@H](OC(C)=O)[C@H](C)[C@@H](OC)/C=C/O[C@@]4(C)Oc5c(C)c(O)c(c2c5C4=O)C3=O)N1 (single isomer, unassigned) [Compound 20B] and give its measured MIC H. influenzae.
Reply: 0.25

Task item: Please give the measured MIC H. influenzae for this molecule: CO[C@H]1/C=C/O[C@@]2(C)Oc3c(C)c(O)c4c(c3C2=O)C2=NC3(CCCN(C)CC3)NC2=C(NC(=O)/C(C)=C\C=C\[C@H](C)[C@H](O)[C@@H](C)[C@@H](O)[C@@H](C)[C@H](OC(C)=O)[C@@H]1C)C4=O (single isomer, unassigned)
Reply: 0.06

Task item: So what does the record say about MIC H. influenzae for CO[C@H]1/C=C/O[C@@]2(C)Oc3c(C)c(O)c4c(c3C2=O)C2=NC3(CC5CCC(C3)N5)NC2=C(NC(=O)/C(C)=C\C=C\[C@H](C)[C@H](O)[C@@H](C)[C@@H](O)[C@@H](C)[C@H](OC(C)=O)[C@@H]1C)C4=O (single isomer, unassigned) [Compound 12B] ?
Reply: 0.06

###

system: Staphylococcus epidermidis (strain ATCC 12228); assay: MIC by broth microdilution, S. epidermidis; format: cell-based; settings: strain ATCC 12228, cation adjusted Mueller Hinton broth
For each entry below, report its MIC S. epidermidis value.

Task item: I am curious: what MIC S. epidermidis value has been reported for COC1C=COC2(C)Oc3c(C)c(O)c4c(c3C2=O)C2=NC3(NC2=C(NC(=O)C(C)=CC=CC(C)C(O)C(C)C(O)C(C)C(OC(C)=O)C1C)C4=O)C1CCCC3CNC1 (mixture of isomers) [16 (A + B)] ?
Reply: < 2 ng/mL

Task item: If you can, please state the reported MIC S. epidermidis value of CO[C@H]1/C=C/O[C@@]2(C)Oc3c(C)c(O)c4c(c3C2=O)C2=NC3(NC2=C(NC(=O)/C(C)=C\C=C\[C@H](C)[C@H](O)[C@@H](C)[C@@H](O)[C@@H](C)[C@H](OC(C)=O)[C@@H]1C)C4=O)C1CN(C)CC3CN(C)C1 (some centres unmarked) [Compound 18] .
Reply: < 2 ng/mL

###

tested on: S. aureus; assay: MIC by broth microdilution, S. aureus; type: cell-based, Staphylococcus aureus; conditions: cation adjusted Mueller Hinton broth, 35° C. 20 hours
value-kind: MIC S. aureus (mg/L)
Reply numerically in mg/L, unit not repeated.

Task item: Please report the recorded MIC S. aureus for CO[C@H]1/C=C/O[C@@]2(C)Oc3c(C)c(O)c4c(c3C2=O)C2=NC3(CCCNCC3)NC2=C(NC(=O)/C(C)=C\C=C\[C@H](C)[C@H](O)[C@@H](C)[C@@H](O)[C@@H](C)[C@H](OC(C)=O)[C@@H]1C)C4=O (single isomer, unassigned) [Compound 6B] .
Reply: 16

Task item: What does the data say about its MIC S. aureus? Entry: CO[C@H]1/C=C/O[C@@]2(C)Oc3c(C)c(O)c4c(c3C2=O)C2=NC3(NC2=C(NC(=O)/C(C)=C\C=C\[C@H](C)[C@H](O)[C@@H](C)[C@@H](O)[C@@H](C)[C@H](OC(C)=O)[C@@H]1C)C4=O)C1CN(C)CC3CN(C)C1 (stereo partly drawn) [Compound 18]
Reply: 0.016

Task item: Requested read-out: MIC S. aureus. Entry: CO[C@H]1/C=C/O[C@@]2(C)Oc3c(C)c(O)c4c(c3C2=O)C2=NC3(CCCN(C)CC3)NC2=C(NC(=O)/C(C)=C\C=C\[C@H](C)[C@H](O)[C@@H](C)[C@@H](O)[C@@H](C)[C@H](OC(C)=O)[C@@H]1C)C4=O (single isomer, unassigned) [Compound 7A]
Reply: 0.008

###

test system: H. influenzae (strain ATCC 49247); assay: MIC by broth microdilution, H. influenzae; type: cell-based, Hemophilus influenzae; details: strain ATCC 49247, Hemophilus test medium broth
value-kind: MIC H. influenzae (µg/mL)
Answer format: numeric, µg/mL implied, no suffix.

Task item: Please report the recorded MIC H. influenzae for CO[C@H]1/C=C/O[C@@]2(C)Oc3c(C)c(O)c4c(c3C2=O)C2=NC3(NC2=C(NC(=O)/C(C)=C\C=C\[C@H](C)[C@H](O)[C@@H](C)[C@@H](O)[C@@H](C)[C@H](OC(C)=O)[C@@H]1C)C4=O)C1CN(C)CC3CN(C)C1 (stereo partly shown) .
Reply: 0.125

Task item: Endpoint output: MIC H. influenzae of COC1C=COC2(C)Oc3c(C)c(O)c4c(c3C2=O)C2=NC3(CCC5CCC(C3)N5C)NC2=C(NC(=O)C(C)=CC=CC(C)C(O)C(C)C(O)C(C)C(OC(C)=O)C1C)C4=O (mixture of isomers) . Value?
Reply: 0.125

Task item: # get_value(readout='MIC H. influenzae', item= CO[C@H]1/C=C/O[C@@]2(C)Oc3c(C)c(O)c4c(c3C2=O)C2=NC3(NC2=C(NC(=O)/C(C)=C\C=C\[C@H](C)[C@H](O)[C@@H](C)[C@@H](O)[C@@H](C)[C@H](OC(C)=O)[C@@H]1C)C4=O)C1CC2CC3CN(C2)C1 (stereo partly shown) )
Reply: 0.125

Task item: Looking for the measured MIC H. influenzae of COC1C=COC2(C)Oc3c(C)c(O)c4c(c3C2=O)C2=NC3(NC2=C(NC(=O)C(C)=CC=CC(C)C(O)C(C)C(O)C(C)C(OC(C)=O)C1C)C4=O)C1CCCC3CNC1 (mixture of isomers) , can you help?
Reply: 0.06

###

So I've got a bunch of compounds here, and I need their MIC M. tuberculosis values.
test system: M. tuberculosis (H37Rv strain ATCC 27294); assay type: cell-based, Mycobacterium tuberculosis
The answer is to be given in µg/mL; state only the numeric part.

Task item: Recall the recorded MIC M. tuberculosis for CO[C@H]1/C=C/O[C@@]2(C)Oc3c(C)c(O)c4c(c3C2=O)C2=NC3(NC2=C(NC(=O)/C(C)=C\C=C\[C@H](C)[C@H](O)[C@@H](C)[C@@H](O)[C@@H](C)[C@H](OC(C)=O)[C@@H]1C)C4=O)C1CN(C)CC3CN(C)C1 (stereo partly drawn) with M. tuberculosis (H37Rv strain ATCC 27294) and state it.
Reply: 0.01

Task item: Give M. tuberculosis (H37Rv strain ATCC 27294) MIC M. tuberculosis for CO[C@H]1/C=C/O[C@@]2(C)Oc3c(C)c(O)c4c(c3C2=O)C2=NC3(NC2=C(NC(=O)/C(C)=C\C=C\[C@H](C)[C@H](O)[C@@H](C)[C@@H](O)[C@@H](C)[C@H](OC(C)=O)[C@@H]1C)C4=O)C1CC2CC3CN(C2)C1 (stereo partly drawn)
Reply: 0.01

Task item: Any idea what MIC M. tuberculosis came out for CCCN1C2CCC1CC1(C2)N=C2C(=C3NC(=O)/C(C)=C\C=C\[C@H](C)[C@H](O)[C@@H](C)[C@@H](O)[C@@H](C)[C@H](OC(C)=O)[C@H](C)[C@@H](OC)/C=C/O[C@@]4(C)Oc5c(C)c(O)c(c2c5C4=O)C3=O)N1 (single isomer, unassigned) [Compound 20B] on M. tuberculosis (H37Rv strain ATCC 27294)?
Reply: 0.01

Task item: Given the entry COC1C=COC2(C)Oc3c(C)c(O)c4c(c3C2=O)C2=NC3(CCC5CCC(C3)N5C)NC2=C(NC(=O)C(C)=CC=CC(C)C(O)C(C)C(O)C(C)C(OC(C)=O)C1C)C4=O (mixture of isomers) , what MIC M. tuberculosis was observed with M. tuberculosis (H37Rv strain ATCC 27294)?
Reply: 0.01

Task item: Report MIC M. tuberculosis for CO[C@H]1/C=C/O[C@@]2(C)Oc3c(C)c(O)c4c(c3C2=O)C2=NC3(CCCN(C)CC3)NC2=C(NC(=O)/C(C)=C\C=C\[C@H](C)[C@H](O)[C@@H](C)[C@@H](O)[C@@H](C)[C@H](OC(C)=O)[C@@H]1C)C4=O (single isomer, unassigned) tested on M. tuberculosis (H37Rv strain ATCC 27294).
Reply: 0.01

Task item: Checklist item: MIC M. tuberculosis tested on M. tuberculosis (H37Rv strain ATCC 27294), entry CO[C@H]1/C=C/O[C@@]2(C)Oc3c(C)c(O)c4c(c3C2=O)C2=NC3(CC5CCC(C3)N5)NC2=C(NC(=O)/C(C)=C\C=C\[C@H](C)[C@H](O)[C@@H](C)[C@@H](O)[C@@H](C)[C@H](OC(C)=O)[C@@H]1C)C4=O (single isomer, unassigned) [Compound 12B] , value?
Reply: 0.01
